Quick reference for percentage of EdU-negative among some sequences
# Test system: hTERT-HMEC
# method.summary: percentage of EdU-negative (G0-arrested) nuclei per well, 72 h; higher = more G0 arrest
# assay.setup: protein concentration 0.0225 µM; reference: sequence is the full UniProt precursor, the tested protein was the secreted form or ectodomain

monomer.sequence	percentage of EdU-negative / %
MAASRWARKAVVLLCASDLLLLLLLLPPPGSCAAEGSPGTPDESTPPPRKKKKDIRDYNDADMARLLEQWEKDDDIEEGDLPEHKRPSAPVDFSKIDPSKPESILKMTKKGKTLMMFVTVSGSPTEKETEEITSLWQGSLFNANYDVQRFIVGSDRAIFMLRDGSYAWEIKDFLVGQDRCADVTLEGQVYPGKGGGSKEKNKTKQDKGKKKKEGDLKSRSSKEENRAGNKREDL	5.03
MGSGRRALSAVPAVLLVLTLPGLPVWAQNDTEPIVLEGKCLVVCDSNPATDSKGSSSSPLGISVRAANSKVAFSAVRSTNHEPSEMSNKTRIIYFDQILVNVGNFFTLESVFVAPRKGIYSFSFHVIKVYQSQTIQVNLMLNGKPVISAFAGDKDVTREAATNGVLLYLDKEDKVYLKLEKGNLVGGWQYSTFSGFLVFPL [Q9NTU7]	5.12
MKFSPAHYLLPLLPALVLSTRQDYEELEKQLKEVFKERSTILRQLTKTSRELDGIKVNLQSLKNDEQSAKTDVQKLLELGQKQREEMKSLQEALQNQLKETSEKAEKHQATINFLKTEVERKSKMIRDLQNENKSLKNKLLSGNKLCGIHAEESKKIQAQLKELRYGKKDLLFKAQQLTDLEQKLAVAKNELEKAALDRESQMKAMKETVQLCLTSVFRDQPPPPLSLITSNPTRMLLPPRNIASKLPDAAAKSKPQQSASGNNESSQVESTKEGNPSTTACDSQDEGRPCSMKHKESPPSNATAETEPIPQKLQMPPCSECEVKKAPEKPLTSFEGMAAREEKIL [Q86TE4]	5.34

* * *

# Tested on: hTERT-HMEC
# method.summary: percentage of EdU-negative (G0-arrested) nuclei per well, 72 h; higher = more G0 arrest
# assay.setup: protein concentration 0.3125 µM; reference: sequence is the full UniProt precursor, the tested protein was the secreted form or ectodomain

monomer.sequence	assayed.target	percentage of EdU-negative
MFIKVMFGAGCSVLVNTSCRLVNLTAHLRQKAGLPPDATIALLAEDGNLVSLEEDLKEGASRAQTMGNSLLKERAIYVLVRIIKGEDMASTRYESLLENLDDHYPELAEELRRLSGLSSVGHNWRKRMGTRRGRHEQSPTSRPRKGPD [Q8WYQ4]	hTERT-HMEC	5.68%
MPAFNRLFPLASLVLIYWVSVCFPVCVEVPSETEAVQGNPMKLRCISCMKREEVEATTVVEWFYRPEGGKDFLIYEYRNGHQEVESPFQGRLQWNGSKDLQDVSITVLNVTLNDSGLYTCNVSREFEFEAHRPFVKTTRLIPLRVTEEAGEDFTSVVSEIMMYILLVFLTLWLLIEMIYCYRKVSKAEEAAQENASDYLAIPSENKENSAVPVEE [Q9NY72]	hTERT-HMEC	4.76%
MGSSSFLVLMVSLVLVTLVAVEGVKEGIEKAGVCPADNVRCFKSDPPQCHTDQDCLGERKCCYLHCGFKCVIPVKELEEGGNKDEDVSRPYPEPGWEAKCPGSSSTRCPQK [Q8WWY7]	hTERT-HMEC	5.28%
MALLPVLFLVTVLLPSLPAEGKDPAFTALLTTQLQVQREIVNKHNELRKAVSPPASNMLKMEWSREVTTNAQRWANKCTLQHSDPEDRKTSTRCGENLYMSSDPTSWSSAIQSWYDEILDFVYGVGPKSPNAVVGHYTQLVWYSTYQVGCGIAYCPNQDSLKYYYVCQYCPAGNNMNRKNTPYQQGTPCAGCPDDCDKGLCTNSCQYQDLLSNCDSLKNTAGCEHELLKEKCKATCLCENKIY	hTERT-HMEC	6.12%

* * *

Quick reference for percentage of EdU-negative among some sequences
# Tested on: hTERT-HMEC;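 also: secreted proteins added to cultured cells, EdU pulse at the end, nuclei found by Hoechst imaging, EdU status from nuclear versus surrounding ring intensity ratio, PBS as neutral control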
# method.summary: percentage of EdU-negative (G0-arrested) nuclei per well, 72 h; higher = more G0 arrest
# assay.setup: protein concentration 0.0225 µM; reference: sequence is the full UniProt precursor, the tested protein was the secreted form or ectodomain

monomer.sequence	unit.of.measure	percentage of EdU-negative
MAEGNTLISVDYEIFGKVQGVFFRKHTQAEGKKLGLVGWVQNTDRGTVQGQLQGPISKVRHMQEWLETRGSPKSHIDKANFNNEKVILKLDYSDFQIVK [G3V2U7]	%	4.35
MEKILILLLVALSVAYAAPGPRGIIINLENGELCMNSAQCKSNCCQHSSALGLARCTSMASENSECSVKTLYGIYYKCPCERGLTCEGDKTIVGSITNTNFGICHDAGRSKQ	%	5.19
MDPRLPAWALVLLGPALVFALGPAPTPEMREKLCGHHFVRALVRVCGGPRWSTEARRPATGGDRELLQWLERRHLLHGLVADSNLTLGPGLQPLPQTSHHHRHHRAAATNPARYCCLSGCTQQDLLTLCPY	%	6.04
MALRVVRSVRALLCTLRAVPSPAAPCPPRPWQLGVGAVRTLRTGPALLSVRKFTEKHEWVTTENGIGTVGISNFAQEALGDVVYCSLPEVGTKLNKQDEFGALESVKAASELYSPLSGEVTEINEALAENPGLVNKSCYEDGWLIKMTLSNPSELDELMSEEAYEKYIKSIEE	%	4.5
MRAPHLHLSAASGARALAKLLPLLMAQLWAAEAALLPQNDTRLDPEAYGSPCARGSQPWQVSLFNGLSFHCAGVLVDQSWVLTAAHCGNKPLWARVGDDHLLLLQGEQLRRTTRSVVHPKYHQGSGPILPRRTDEHDLMLLKLARPVVLGPRVRALQLPYRCAQPGDQCQVAGWGTTAARRVKYNKGLTCSSITILSPKECEVFYPGVVTNNMICAGLDRGQDPCQSDSGGPLVCDETLQGILSWGVYPCGSAQHPAVYTQICKYMSWINKVIRSN	%	3.89
MAQRMTTQLLLLLVWVAVVGEAQTRIAWARTELLNVCMNAKHHKEKPGPEDKLHEQCRPWRKNACCSTNTSQEAHKDVSYLYRFNWNHCGEMAPACKRHFIQDTCLYECSPNLGPWIQQVDQSWRKERVLNVPLCKEDCEQWWEDCRTSYTCKSNWHKGWNWTSGFNKCAVGAACQPFHFYFPTPTVLCNEIWTHSYKVSNYSRGSGRCIQMWFDPAQGNPNEEVARFYAAAMSGAGPWAAWPFLLSLALMLLWLLS	%	15.7
MEACCLLQLPQRLLLLGAAALTATALETADLAELCGQTWQGDGLLLRSHAASRRFYFVAPDTDCGLWVQAAAPGDRIRFQFRFFLVYSLTPAPPALNTSSPAPADPCAPGSYLQFYEGPPGAPRPLGSPLCGLNIPVPVASSGPFLGLRLVTRGRQPRVDFVGEVTSFRLGPCGAYFRCQNGRCIPSSLVCDPWGMDNCGDGSDQGSWSPADCRGPSPVPSQTGSTDAHTSRSLTPSPALGSAGSLWIAAERSSPAGRDPTRQDAALEGSTE [Q5SZI1]	%	5.13
MGCLLFLLLWALLQAWGSAEVPQRLFPLRCLQISSFANSSWTRTDGLAWLGELQTHSWSNDSDTVRSLKPWSQGTFSDQQWETLQHIFRVYRSSFTRDVKEFAKMLRLSYPLELQVSAGCEVHPGNASNNFFHVAFQGKDILSFQGTSWEPTQEAPLWVNLAIQVLNQDKWTRETVQWLLNGTCPQFVSGLLESGKSELKKQVKPKAWLSRGPSPGPGRLLLVCHVSGFYPKPVWVKWMRGEQEQQGTQPGDILPNADETWYLRATLDVVAGEAAGLSCRVKHSSLEGQDIVLYWGGSYTSMGLIALAVLACLLFLLIVGFTSRFKRQTSYQGVL	%	4.97
MVAALLGGGGEARGGTVPGAWLCLMALLQLLGSAPRGSGLAHGRRLICWQALLQCQGEPECSYAYNQYAEACAPVLAQHGGGDAPGAAAAAFPASAASFSSRWRCPSHCISALIQLNHTRRGPALEDCDCAQDENCKSTKRAIEPCLPRTSGGGAGGPGAGGVMGCTEARRRCDRDSRCNLALSRYLTYCGKVFNGLRCTDECRTVIEDMLAMPKAALLNDCVCDGLERPICESVKENMARLCFGAELGNGPGSSGSDGGLDDYYDEDYDDEQRTGGAGGEQPLDDDDGVPHPPRPGSGAAASGGRGDLPYGPGRRSSGGGGRLAPRGAWTPLASILLLLLGPLF	%	4.96
MRLLVLLWGCLLLPGYEALEGPEEISGFEGDTVSLQCTYREELRDHRKYWCRKGGILFSRCSGTIYAEEEGQETMKGRVSIRDSRQELSLIVTLWNLTLQDAGEYWCGVEKRGPDESLLISLFVFPGPCCPPSPSPTFQPLATTRLQPKAKAQQTQPPGLTSPGLYPAATTAKQGKTGAEAPPLPGTSQYGHERTSQYTGTSPHPATSPPAGSSRPPMQLDSTSAEDTSPALSSGSSKPRVSIPMVRILAPVLVLLSLLSAAGLIAFCSHLLLWRKEAQQATETQRNEKFCLSRLTAEEKEAPSQAPEGDVISMPPLHTSEEELGFSKFVSA [K7EL06]	%	5.2
MKLHYVAVLTLAILMFLTWLPESLSCNKALCASDVSKCLIQELCQCRPGEGNCSCCKECMLCLGALWDECCDCVGMCNPRNYSDTPPTSKSTVEELHEPIPSLFRALTEGDTQLNWNIVSFPVAEELSHHENLVSFLETVNQPHHQNVSVPSNNVHAPYSSDKEHMCTVVYFDDCMSIHQCKISCESMGASKYRWFHNACCECIGPECIDYGSKTVKCMNCMF [Q9GZX9]	%	4.64
MKWMVVVLVCLQLLEAAVVKVPLKKFKSIRETMKEKGLLGEFLRTHKYDPAWKYRFGDLSVTYEPMAYMDAAYFGEISIGTPPQNFLVLFDTGSSNLWVPSVYCQSQACTSHSRFNPSESSTYSTNGQTFSLQYGSGSLTGFFGYDTLTVQSIQVPNQEFGLSENEPGTNFVYAQFDGIMGLAYPALSVDEATTAMQGMVQEGALTSPVFSVYLSNQQGSSGGAVVFGGVDSSLYTGQIYWAPVTQELYWQIGIEEFLIGGQASGWCSEGCQAIVDTGTSLLTVPQQYMSALLQATGAQEDEYGQFLVNCNSIQNLPSLTFIINGVEFPLPPSSYILSNNGYCTVGVEPTYLSSQNGQPLWILGDVFLRSYYSVYDLGNNRVGFATAA	%	4.89
